# Test system: 233499-124-R-J3-PDC spheroids with HUVEC/MSC, viability;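 also: spheroids exposed to agents for seven days before readout; percent viability relative to DMSO vehicle control taken as 100%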
# assay protocol: Anticancer human tumor 233499-124-R-J3-PDC patient-derived colon adenocarcinoma cell line growth inhibition [PI3K]
# experimental context: second compound 0.00316 µM; first compound 0.01 µM; hits give low values
viability, T/C values, listed per item
Express your answer in %, writing the number without its unit.

Observe how each entry below is paired with its result.
CC(C)n1nc(-c2ccc3oc(N)nc3c2)c2c(N)ncnc21 + COc1c(OCCCN2CCOCC2)ccc2c3n(c(=NC(=O)c4cnc(N)nc4)nc12)CCN3 : 80.3
Cn1ncnc1[C@H]1c2n[nH]c(=O)c3cc(F)cc(c23)N[C@@H]1c1ccc(F)cc1 + CC(Nc1ccc2c(c1)OCCn1cc(N3C(=O)OCC3C(F)F)nc1-2)C(N)=O : 105
CC(=O)c1c(C)c2cnc(Nc3ccc(N4CCNCC4)cn3)nc2n(C2CCCC2)c1=O + CC(Nc1ccc2c(c1)OCCn1cc(N3C(=O)OCC3C(F)F)nc1-2)C(N)=O : 73.7
CC(C)n1nc(-c2ccc3oc(N)nc3c2)c2c(N)ncnc21 + CC(Nc1ccc2c(c1)OCCn1cc(N3C(=O)OCC3C(F)F)nc1-2)C(N)=O : 95.7
CC(=O)c1c(C)c2cnc(Nc3ccc(N4CCNCC4)cn3)nc2n(C2CCCC2)c1=O + COc1c(OCCCN2CCOCC2)ccc2c3n(c(=NC(=O)c4cnc(N)nc4)nc12)CCN3 : 106
Cn1ncnc1[C@H]1c2n[nH]c(=O)c3cc(F)cc(c23)N[C@@H]1c1ccc(F)cc1 + COc1c(OCCCN2CCOCC2)ccc2c3n(c(=NC(=O)c4cnc(N)nc4)nc12)CCN3 : 111
CCN1CCN(Cc2ccc(Nc3ncc(F)c(-c4cc(F)c5nc(C)n(C(C)C)c5c4)n3)nc2)CC1 + CC(Nc1ccc2c(c1)OCCn1cc(N3C(=O)OCC3C(F)F)nc1-2)C(N)=O : 98.9

Lookup: # viability, T/C lookup, item CCN1CCN(Cc2ccc(Nc3ncc(F)c(-c4cc(F)c5nc(C)n(C(C)C)c5c4)n3)nc2)CC1 + COc1c(OCCCN2CCOCC2)ccc2c3n(c(=NC(=O)c4cnc(N)nc4)nc12)CCN3
Found: 92

The reported measurements were obtained from PubChem BioAssay AID1963984.
